Taken from patent US10059721B2.

# System: PANC-1 (pancreatic cancer) cell line
# Experimental Details: Cell growth inhibition experiment (SRB), PANC-1
# Type: cell-based
# Settings: Homo sapiens, incubated for 96 hours, read-out: IC50 (μM) of cancer cell lines PANC-1
Measured IC50 by item

INSERT INTO assay_data (smiles_representation, result) VALUES
  ('CC(C)Oc1nc2cc(Cl)sc2nc1NC(=O)N1CCN(c2cc(F)cc(F)c2)CC1', '< 2.5 µM'),
  ('COc1nc2cc(Cl)sc2nc1NC(=O)N1CCN(c2cc(C)cc(C)c2)CC1', '0.95 µM'),
  ('COc1cc(OC)cc(N2CCN(C(=O)Nc3nc4sc(Cl)cc4nc3OC)CC2)c1', '0.53 µM');

Reported IC50, compound COc1nc2ccsc2nc1NC(=O)N1CCN(c2cc(C)cc(OC(F)(F)F)c2)CC1 : ____
0.58 µM

Reported IC50, compound CC(C)Oc1nc2ccsc2nc1NC(=O)N1CCN(c2cc(F)cc(F)c2)CC1 : ____
< 2.5 µM

Reported IC50, compound CCOc1nc2ccsc2nc1NC(=O)N1CCN(c2cc(OC)cc(OC)c2)CC1 : ____
0.65 µM

Reported IC50, compound COc1nc2ccsc2nc1NC(=O)N1CCN(c2cccc(OC(F)(F)F)c2)CC1 : ____
0.44 µM

Reported IC50, compound COc1cc(OC(F)(F)F)cc(N2CCN(C(=O)Nc3nc4sccc4nc3OC)CC2)c1 : ____
0.08 µM

Reported IC50, compound COc1cc(OC)cc(N2CCN(C(=O)Nc3nc4sccc4nc3OC)CC2)c1 : ____
0.38 µM
